Target: MAPKAPK5 (human) (UniProt Q8IW41)
Sequence (Q8IW41 whole entry, looked up): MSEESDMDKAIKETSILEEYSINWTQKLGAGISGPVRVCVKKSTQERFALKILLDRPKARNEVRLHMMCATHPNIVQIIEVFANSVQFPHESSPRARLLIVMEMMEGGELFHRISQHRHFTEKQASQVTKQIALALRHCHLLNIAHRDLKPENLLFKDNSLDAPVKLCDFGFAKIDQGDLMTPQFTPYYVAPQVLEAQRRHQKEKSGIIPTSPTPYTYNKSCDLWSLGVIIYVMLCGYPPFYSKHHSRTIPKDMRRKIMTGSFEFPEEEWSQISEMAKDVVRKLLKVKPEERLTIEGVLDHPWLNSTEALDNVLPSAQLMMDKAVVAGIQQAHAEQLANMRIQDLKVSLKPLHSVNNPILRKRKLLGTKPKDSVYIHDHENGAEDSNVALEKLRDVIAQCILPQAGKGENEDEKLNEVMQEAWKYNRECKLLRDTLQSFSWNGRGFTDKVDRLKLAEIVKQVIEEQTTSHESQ
Assay name: KINOMEscan competition binding
Test context: compound 10.0 µM
Observed property: kinase still bound, per cent of control (%)

O=C1Nc2cc(Br)ccc2/C1=C1/Nc2ccccc2/C1=N\O: 100
Cn1cc(C2=C(c3ccc(Cl)cc3Cl)C(=O)NC2=O)c2ccccc21: 100
COc1ccc(CNC(=O)Nc2ncc([N+](=O)[O-])s2)cc1: 100
Cc1cnc(-c2cnc(NCCNc3ccc(C#N)cn3)nc2-c2ccc(Cl)cc2Cl)[nH]1: 96

---

Target: RAF1 (human) (UniProt P04049)
Sequence (P04049 whole entry, looked up): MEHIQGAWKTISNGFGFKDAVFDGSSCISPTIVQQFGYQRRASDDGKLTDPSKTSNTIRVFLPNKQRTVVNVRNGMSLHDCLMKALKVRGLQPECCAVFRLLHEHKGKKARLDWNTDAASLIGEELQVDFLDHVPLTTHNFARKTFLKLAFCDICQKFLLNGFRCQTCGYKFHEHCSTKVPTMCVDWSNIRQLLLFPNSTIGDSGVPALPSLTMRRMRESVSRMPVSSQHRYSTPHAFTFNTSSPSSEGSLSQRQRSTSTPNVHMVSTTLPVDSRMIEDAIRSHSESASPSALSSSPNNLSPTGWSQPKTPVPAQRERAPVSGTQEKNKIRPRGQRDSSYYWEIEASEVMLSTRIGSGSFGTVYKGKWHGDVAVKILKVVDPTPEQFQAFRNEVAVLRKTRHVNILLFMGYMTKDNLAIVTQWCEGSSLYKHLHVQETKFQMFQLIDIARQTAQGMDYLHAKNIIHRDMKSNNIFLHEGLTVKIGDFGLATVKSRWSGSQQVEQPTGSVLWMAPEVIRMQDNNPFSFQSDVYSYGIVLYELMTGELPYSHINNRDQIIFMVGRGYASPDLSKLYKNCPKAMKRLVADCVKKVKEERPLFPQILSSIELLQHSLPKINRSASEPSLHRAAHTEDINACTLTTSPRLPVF
Assay name: KINOMEscan competition binding
Test context: compound 10.0 µM
Observed property: kinase still bound, per cent of control (%)

Sample records with kinase still bound, per cent of control:
Cc1cnc(-c2cnc(NCCNc3ccc(C#N)cn3)nc2-c2ccc(Cl)cc2Cl)[nH]1: 100
O=C1Nc2cc(Br)ccc2/C1=C1/Nc2ccccc2/C1=N\O: 90

(a) Cn1cc(C2=C(c3ccc(Cl)cc3Cl)C(=O)NC2=O)c2ccccc21
(b) COc1ccc(CNC(=O)Nc2ncc([N+](=O)[O-])s2)cc1
Enquiry: Pick the one with the larger kinase still bound, per cent of control: a vs b Identify your selection by its label.
Return: a
(a: 91%, b: 63%)
